Below: a set of entries, each annotated with reported inhibition at 3 µM.
targetDesc: Human CaV2.2 channels (Homo sapiens, UniProt Q00975)
Construct: expressed in transfected cells; also stably expressing Kir2.3)
Sequence (Q00975 whole entry): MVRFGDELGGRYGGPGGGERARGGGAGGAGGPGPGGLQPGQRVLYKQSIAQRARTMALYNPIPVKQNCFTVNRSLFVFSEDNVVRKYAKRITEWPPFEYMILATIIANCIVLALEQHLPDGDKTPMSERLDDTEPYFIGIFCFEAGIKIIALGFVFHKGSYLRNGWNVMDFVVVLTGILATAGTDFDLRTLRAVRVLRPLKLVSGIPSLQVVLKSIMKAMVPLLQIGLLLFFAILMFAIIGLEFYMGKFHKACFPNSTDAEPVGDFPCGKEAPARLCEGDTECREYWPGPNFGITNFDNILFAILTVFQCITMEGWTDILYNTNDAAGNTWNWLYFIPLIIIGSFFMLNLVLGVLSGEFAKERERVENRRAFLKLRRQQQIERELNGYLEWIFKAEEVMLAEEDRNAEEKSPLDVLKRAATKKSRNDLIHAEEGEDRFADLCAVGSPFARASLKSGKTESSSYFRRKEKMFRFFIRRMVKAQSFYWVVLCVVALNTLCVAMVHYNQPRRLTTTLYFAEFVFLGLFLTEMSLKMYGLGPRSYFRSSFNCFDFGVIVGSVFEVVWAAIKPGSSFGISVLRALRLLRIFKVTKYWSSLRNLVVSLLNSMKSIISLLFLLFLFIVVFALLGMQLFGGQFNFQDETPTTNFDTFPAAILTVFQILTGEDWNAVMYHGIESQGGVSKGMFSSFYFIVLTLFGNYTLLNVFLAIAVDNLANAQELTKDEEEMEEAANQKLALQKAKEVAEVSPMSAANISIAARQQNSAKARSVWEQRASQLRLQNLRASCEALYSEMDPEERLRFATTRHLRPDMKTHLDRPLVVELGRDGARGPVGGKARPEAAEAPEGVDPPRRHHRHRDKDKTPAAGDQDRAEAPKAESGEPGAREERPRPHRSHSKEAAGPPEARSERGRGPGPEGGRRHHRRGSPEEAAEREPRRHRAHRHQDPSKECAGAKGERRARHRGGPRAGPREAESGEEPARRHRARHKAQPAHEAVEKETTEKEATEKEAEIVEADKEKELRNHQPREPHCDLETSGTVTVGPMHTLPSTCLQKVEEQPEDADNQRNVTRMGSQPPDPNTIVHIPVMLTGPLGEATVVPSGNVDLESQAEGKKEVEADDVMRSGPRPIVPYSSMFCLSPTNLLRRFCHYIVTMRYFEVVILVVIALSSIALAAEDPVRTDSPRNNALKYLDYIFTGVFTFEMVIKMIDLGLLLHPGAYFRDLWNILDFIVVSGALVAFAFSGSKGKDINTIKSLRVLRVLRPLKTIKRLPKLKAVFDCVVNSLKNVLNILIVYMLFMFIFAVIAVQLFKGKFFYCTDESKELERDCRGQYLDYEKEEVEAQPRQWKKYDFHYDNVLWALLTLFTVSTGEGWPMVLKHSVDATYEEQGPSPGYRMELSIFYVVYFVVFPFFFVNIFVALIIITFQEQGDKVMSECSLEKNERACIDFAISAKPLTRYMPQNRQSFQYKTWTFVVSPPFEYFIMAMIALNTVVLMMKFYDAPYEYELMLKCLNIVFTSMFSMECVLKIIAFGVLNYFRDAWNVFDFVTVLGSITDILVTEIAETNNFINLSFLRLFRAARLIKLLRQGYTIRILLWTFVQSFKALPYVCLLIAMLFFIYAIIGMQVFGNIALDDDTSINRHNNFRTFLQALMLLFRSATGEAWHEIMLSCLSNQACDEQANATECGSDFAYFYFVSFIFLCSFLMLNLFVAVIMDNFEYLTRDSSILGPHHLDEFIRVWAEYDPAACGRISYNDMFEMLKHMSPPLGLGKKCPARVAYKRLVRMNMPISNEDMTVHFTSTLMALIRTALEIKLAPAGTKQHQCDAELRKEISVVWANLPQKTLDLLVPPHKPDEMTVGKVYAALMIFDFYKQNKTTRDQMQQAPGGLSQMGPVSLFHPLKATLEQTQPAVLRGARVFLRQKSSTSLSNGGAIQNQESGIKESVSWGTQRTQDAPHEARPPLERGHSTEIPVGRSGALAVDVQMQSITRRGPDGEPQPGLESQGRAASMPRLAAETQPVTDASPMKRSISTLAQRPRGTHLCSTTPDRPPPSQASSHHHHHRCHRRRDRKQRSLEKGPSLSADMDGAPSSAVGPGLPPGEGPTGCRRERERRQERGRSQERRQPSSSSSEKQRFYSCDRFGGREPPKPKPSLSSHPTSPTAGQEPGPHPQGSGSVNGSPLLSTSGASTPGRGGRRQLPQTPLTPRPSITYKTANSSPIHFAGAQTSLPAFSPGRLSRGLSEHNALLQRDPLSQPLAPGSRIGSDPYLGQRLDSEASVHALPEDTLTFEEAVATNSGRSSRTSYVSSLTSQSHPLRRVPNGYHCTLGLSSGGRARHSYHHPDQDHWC
testMethodNotes: Fluorescent assay for CaV2.2 channels using potassium depolarization to induce channel opening (FLIPR, Fluo 4)
Assay type: cell-based
conditionLabel: 3 μM test compound; 30 mM KCl alternative assay buffer (inactivated channel state); HEK293 cells; read-out: %-Inhib (CaV2.2) @3 μM @30 mM KCl

- molecule: "Cc1c(-c2ccn(C)n2)c(C(=O)N(C)C(C)C)n(Cc2ccccc2)c1C(F)(F)F"
  inhibition at 3 µM: "75 to 95%"
- molecule: "Cc1c(-c2ncc(C(F)(F)F)cc2F)c(C(=O)N2CCOCC2)n(Cc2ccccc2)c1C(F)(F)F"
  inhibition at 3 µM: "> 95%"
- molecule: "Cc1c(-c2ncc(C3CC3)cn2)c(C(=O)N(C)C(C)C)n(Cc2ccccc2)c1C(F)(F)F"
  inhibition at 3 µM: "> 95%"
- molecule: "Cc1c(-c2ccc(F)cn2)c(C(=O)N2CCOCC2)n(Cc2ccccc2)c1C(F)(F)F"
  inhibition at 3 µM: "75 to 95%"
- molecule: "Cc1cc(C#N)ncc1-c1c(C)c(C(F)(F)F)n(Cc2ccccc2)c1C(=O)N(C)CC(C)(C)C"
  inhibition at 3 µM: "75 to 95%"
- molecule: "Cc1c(-c2cnccn2)c(C(=O)N2CCOCC2)n(Cc2ccccc2)c1C(F)(F)F"
  inhibition at 3 µM: "40 to 75%"
- molecule: "Cc1c(-c2ncc(F)cn2)c(C(=O)N2CCOCC2)n(Cc2ccccc2)c1C(F)(F)F"
  inhibition at 3 µM: "40 to 75%"
- molecule: "Cc1c(-c2ccc(Cl)cn2)c(C(=O)N(C)CC(C)(C)C)n(Cc2ccccc2)c1C(F)(F)F"
  inhibition at 3 µM: "> 95%"
- molecule: "COc1ncc(-c2c(C)c(C(F)(F)F)n(Cc3ccccc3)c2C(=O)N2CCOCC2)cn1"
  inhibition at 3 µM: "40 to 75%"
- molecule: "Cc1c(-c2ncc(Cl)cn2)c(C(=O)N(C)CC(C)(C)C(N)=O)n(Cc2ccccc2)c1C(F)(F)F"
  inhibition at 3 µM: "> 95%"
- molecule: "Cc1cc(C#N)ncc1-c1c(C)c(C(F)(F)F)n(Cc2ccccc2)c1C(=O)N1CCOCC1"
  inhibition at 3 µM: "75 to 95%"
- molecule: "Cc1c(-c2ccc(Cl)cn2)c(C(=O)N2CCOCC2)n(Cc2ccccc2)c1C(F)(F)F"
  inhibition at 3 µM: "> 95%"
- molecule: "Cc1c(-c2ncc(Cl)cc2[S+](C)[O-])c(C(=O)N(C)C(C)C)n(Cc2ccccc2)c1C(F)(F)F (stereo not shown)"
  inhibition at 3 µM: "75 to 95%"
- molecule: "Cc1c(-c2ncc(Cl)cn2)c(C(=O)N(C)CC(C)(C)C(=O)N(C)C)n(Cc2ccccc2)c1C(F)(F)F"
  inhibition at 3 µM: "> 95%"
- molecule: "Cc1c(-c2ncc(Cl)cn2)c(C(=O)N2CCS(=O)(=O)CC2)n(Cc2ccccc2)c1C(F)(F)F"
  inhibition at 3 µM: "75 to 95%"
- molecule: "Cc1c(-c2ncc(Cl)cn2)c(C(=O)N2CCOC(C)(C)C2)n(Cc2ccccc2)c1C(F)(F)F"
  inhibition at 3 µM: "> 95%"
- molecule: "Cc1c(-c2ccc(F)cn2)c(C(=O)N(C)CC(C)(C)C)n(Cc2ccccc2)c1C(F)(F)F"
  inhibition at 3 µM: "> 95%"
- molecule: "Cc1c(-c2ncc(F)cn2)c(C(=O)N(C)CC(C)(C)C)n(Cc2ccccc2)c1C(F)(F)F"
  inhibition at 3 µM: "> 95%"
- molecule: "COc1cc(C)c(-c2c(C)c(C(F)(F)F)n(Cc3ccccc3)c2C(=O)N2CCOCC2)cn1"
  inhibition at 3 µM: "75 to 95%"
- molecule: "Cc1c(-c2ncc(Cl)cn2)c(C(=O)N(C)CC(C)(C)C)n(Cc2ccccc2)c1C(F)(F)F"
  inhibition at 3 µM: "> 95%"
- molecule: "Cc1c(-c2ncc(Cl)cn2)c(C(=O)N2CCNC(=O)C2)n(Cc2ccccc2)c1C(F)(F)F"
  inhibition at 3 µM: "40 to 75%"
- molecule: "Cc1c(-c2ncc(Cl)cn2)c(C(=O)N(C)CC(C)(C)C#N)n(Cc2ccccc2)c1C(F)(F)F"
  inhibition at 3 µM: "> 95%"
- molecule: "COc1ccc(-c2c(C)c(C(F)(F)F)n(Cc3ccccc3)c2C(=O)N2CCOCC2)cn1"
  inhibition at 3 µM: "75 to 95%"
- molecule: "Cc1c(-c2cnccn2)c(C(=O)N(C)CC(C)(C)C)n(Cc2ccccc2)c1C(F)(F)F"
  inhibition at 3 µM: "75 to 95%"
- molecule: "Cc1c(-c2cn[nH]c2)c(C(=O)N(C)CC(C)(C)C)n(Cc2ccccc2)c1C(F)(F)F"
  inhibition at 3 µM: "75 to 95%"
- molecule: "Cc1c(-c2ncc(Cl)cn2)c(C(=O)N(C)C(C)C)n(Cc2ccccc2)c1C(F)(F)F"
  inhibition at 3 µM: "> 95%"
- molecule: "Cc1c(-c2ncc(C(F)(F)F)cc2F)c(C(=O)N(C)CC(C)(C)C)n(Cc2ccccc2)c1C(F)(F)F"
  inhibition at 3 µM: "75 to 95%"
- molecule: "Cc1c(-c2ncc(Cl)cn2)c(C(=O)NC2CC2)n(Cc2ccccc2)c1C(F)(F)F"
  inhibition at 3 µM: "40 to 75%"
- molecule: "Cc1c(-c2cncnc2)c(C(=O)N(C)CC(C)(C)C)n(Cc2ccccc2)c1C(F)(F)F"
  inhibition at 3 µM: "75 to 95%"
- molecule: "Cc1c(-c2ncccn2)c(C(=O)N2CCOCC2)n(Cc2ccccc2)c1C(F)(F)F"
  inhibition at 3 µM: "40 to 75%"
- molecule: "Cc1c(-c2ccc(O)nc2)c(C(=O)N(C)CC(C)(C)C)n(Cc2ccccc2)c1C(F)(F)F"
  inhibition at 3 µM: "40 to 75%"
